// data source = PubChem BioAssay (NCATS)

System under test: Aldehyde dehydrogenase 1A1 (Homo sapiens) (UniProt P00352)
Method notes: qHTS for Inhibitors of the Aldehyde Dehydrogenase Family (ALDH1A1) Confirmatory screens (AID 2061316); further: nearly all actives have a fitted effect of over 65% in size
Experimental setup: ALDH inhibition qHTS; series mostly up to 47.3 µM
Records with an inconclusive call do not appear. Calls of active or inactive are those of the source. The call rests on the fitted dose curve; in most records, active means well fitted inhibition curve with a large enough effect; inconclusive means small, poorly fitted or top-dose-only effect; inactive means no such curve, though single readings can be large or run the other way.
Labels: yes (1) = active, no (0) = inactive

Compound: Cc1cc(N(C)S(=O)(=O)c2ccc(NC(=O)Cc3ccc(Cl)c(Cl)c3)cc2)no1
System under test: Aldehyde dehydrogenase 1A1 (Homo sapiens) (UniProt P00352)
Answer label: yes (1)
--
Compound: COc1ccc(N2CCN(S(=O)(=O)c3ccc4c(c3)CC(=O)N4)CC2)cc1
System under test: Aldehyde dehydrogenase 1A1 (Homo sapiens) (UniProt P00352)
Answer label: yes (1)
--
Compound: NCCCNc1ncnc2ccc(-c3ccc4c(c3)OCO4)cc12
System under test: Aldehyde dehydrogenase 1A1 (Homo sapiens) (UniProt P00352)
Answer label: yes (1)
--
Compound: CCn1cc2nc(SCc3ccc(F)cc3)n(CCc3ccccc3)c(=O)c2n1
System under test: Aldehyde dehydrogenase 1A1 (Homo sapiens) (UniProt P00352)
Answer label: no (0)
--
Compound: NC(=O)C1CCN(c2nc(-c3ccc(-c4ccccc4)cc3)cs2)CC1
System under test: Aldehyde dehydrogenase 1A1 (Homo sapiens) (UniProt P00352)
Answer label: no (0)
--
Compound: COc1ccc(C(=O)N(Cc2ccco2)Cc2ccco2)c(O)c1
System under test: Aldehyde dehydrogenase 1A1 (Homo sapiens) (UniProt P00352)
Answer label: yes (1)
--
Compound: CC(=O)N1CCc2cc(-c3nc(NC(=O)Cc4ccc5c(c4)OCO5)sc3C)ccc21
System under test: Aldehyde dehydrogenase 1A1 (Homo sapiens) (UniProt P00352)
Answer label: yes (1)
--
Compound: O=C(CCC1CCCN(S(=O)(=O)c2ccccc2F)C1)NCCCN1CCOCC1 (stereo not given)
System under test: Aldehyde dehydrogenase 1A1 (Homo sapiens) (UniProt P00352)
Answer label: no (0)
--
Compound: OCc1ccc(-c2ccc3ncnc(NCc4nccs4)c3c2)o1
System under test: Aldehyde dehydrogenase 1A1 (Homo sapiens) (UniProt P00352)
Answer label: yes (1)
--
Compound: O=[N+]([O-])c1cc(C(F)(F)F)ccc1N1CCN(C(=S)Nc2cc(Cl)ccn2)CC1
System under test: Aldehyde dehydrogenase 1A1 (Homo sapiens) (UniProt P00352)
Answer label: yes (1)

* * *

Overview of reported Potency across a group of compounds:
Method notes: BET inhibitor-based combinations targeting novel dependencies in MECOM-rearranged (r) AML: OCI-AML3 cell line (AID 2202232); further: nearly all actives have a fitted effect of over 35% in size; further: potency means the concentration at half of the fitted maximal effect
Experimental setup: CellTiter-Glo luminescence, 48 h; OCI-AML3 viability; series mostly up to 46 µM
Procedure: Ecotropic viral insertion site 1 (EVI1) is located on chromosome 3q26.2 as part of the MECOM (MDS and EVI1 complex) locus. […] A collection of 2480 mechanistically annotated dugs (MIPE v5.0) was used to screen four 3q26.2 rearranged AML cell lines and three non-3q26.2 rearranged AML cell lines. […] Cell viability was determined by luminescence based, Cell Titer Glo assay (Promega). […] Luminescence readings were taken using a Viewlux (PerkinElmer) with a 2 s exposure time per plate. […]
Inconclusive results are not listed. Activity calls are given as the source filed them. Calls follow the shape of the dose curve; as a rule, active = well fitted inhibition curve with a large enough effect; inconclusive = small, poorly fitted or top-dose-only effect; inactive = no such curve, though single readings can be large or run the other way.

Compound: Cc1ccc(S(=O)(=O)Nc2cc(C(F)(F)F)ccc2C(=O)Nc2nc(-c3ccccc3)cs2)cc1
Potency: 7420 nM (active)
--
Compound: CCCc1nc(C)c2c(=O)[nH]c(-c3cc(S(=O)(=O)N4CCN(CC)CC4)ccc3OCC)nn12
Potency: 3720 nM (active)
--
Compound: Cc1ccc(-c2nn(C(C)(C)CNC(=O)c3ccncc3)c3ncnc(N)c23)cc1
Potency: 16600 nM (active)
--
Compound: COC(=O)Nc1nc2ccc(C(=O)c3ccccc3)cc2[nH]1
Potency: 590 nM (active)
--
Compound: COc1cc(Nc2cnc(C#N)c(O[C@H](C)CN(C)C)n2)ncc1-c1cnn(C)c1
Potency: 1320 nM (active)
--
Compound: O=C(NCc1ccc(S(=O)(=O)c2cccc(C(F)(F)F)c2)cc1)c1cnc2[nH]ncc2c1
Potency: 14.8 nM (active)
--
Compound: C/C=C1\NC(=O)[C@H]2CSSCC/C=C\[C@H](CC(=O)N[C@H](C(C)C)C(=O)N2)OC(=O)[C@H](C(C)C)NC1=O
Potency: 10.5 nM (active)
--
Compound: C=C1/C(=C/C=C2\CCCC3(C)[C@@H]([C@H](C)/C=C/C=C/C(O)(CC)CC)CC[C@@H]23)C[C@@H](O)C[C@@H]1O (some centres undefined)
Potency: 16600 nM (active)
--
Compound: CCN(CC)C(=S)SSC(=S)N(CC)CC
Potency: 332 nM (active)

* * *

System under test: Aldehyde dehydrogenase, mitochondrial (Homo sapiens)
Method notes: qHTS for Inhibitors of the Aldehyde Dehydrogenase Family (ALDH2) Primary screen (AID 2061308);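 further: plate controls were vehicle for no effect and reference inhibitor for full effect; nearly all actives have a fitted effect of over 55% in size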
Experimental setup: ALDH2 enzyme inhibition qHTS, 1536-well; series mostly up to 56 µM
Results filed as inconclusive are left out. Active and inactive are the calls of the source. Calls follow the shape of the dose curve; as a rule, active = well fitted inhibition curve with a large enough effect; inconclusive = small, poorly fitted or top-dose-only effect; inactive = flat fitted curve, though single readings scatter.
Measured attribute: outcome

Compound: CCOC(=O)c1[nH]c2c(c1C)C(=O)CC(c1ccco1)C2 (centres undefined)
Measured attribute: outcome
Result: inactive
--
Compound: Cc1nc(NC2CCCCC2)c2nc(-c3ccccc3)n(CC3CCN(C)CC3)c2n1
Measured attribute: outcome
Result: inactive
--
Compound: O=C1CCCC2=C1C(c1ncccc1C(F)(F)F)N=C(Nc1nc3ccccc3o1)N2 (centres undefined)
Measured attribute: outcome
Result: inactive
--
Compound: O=C1C(F)N([S+](=O)([O-])c2ccc3c(c2)OCCO3)CCN1[S+](=O)([O-])c1c(F)cccc1F (centres undefined)
Measured attribute: outcome
Result: inactive
--
Compound: Cc1cc(NS(=O)(=O)c2ccc(NC(=O)Cc3ccccc3)cc2)no1
Measured attribute: outcome
Result: inactive
--
Compound: O=[S+]([O-])(Nc1ccc(-c2ccccc2)cc1)c1ccc(NCc2ccc(Cl)cc2O)cc1
Measured attribute: outcome
Result: inactive
--
Compound: Cc1ccc(S(=O)(=O)Nc2cnccc2C(=O)Nc2nc(-c3cccc(F)c3)cs2)cc1
Measured attribute: outcome
Result: inactive
--
Compound: CC1(C)C[C@@H]2C[C@@](C)(CN2S(=O)(=O)c2ccc(C(=O)Nc3ccc(Cl)c(S(=O)(=O)N4CCOCC4)c3)cc2)C1
Measured attribute: outcome
Result: inactive
--
Compound: O=S(=O)(Nc1ccc2ccccc2c1)c1ccc(NCc2cccc(Cl)c2O)cc1
Measured attribute: outcome
Result: inactive

* * *

Method notes: BET inhibitor-based combinations targeting novel dependencies in MECOM-rearranged (r) AML: HNT-34 cell line (AID 2202234); further: nearly all actives have a fitted effect of over 35% in size
Experimental setup: HNT-34 AML viability, CellTiter-Glo luminescence, 48 h; series mostly up to 46 µM
Records with an inconclusive call do not appear. Calls of active or inactive are those of the source. Calls follow the shape of the dose curve; as a rule, active = well fitted inhibition curve with a large enough effect; inconclusive = small, poorly fitted or top-dose-only effect; inactive = no such curve, though single readings can be large or run the other way.
Classes used: active, inactive

Smiles data: COc1cc(-c2cn(C)c(=O)c3cnccc23)cc(OC)c1CN(C)C
Answer label: inactive
--
Smiles data: CC(=O)N1CCN(c2ccc(NC(=O)Cc3cnc(-c4ccnc(F)c4)c(C)c3)nc2)CC1
Answer label: inactive
--
Smiles data: C[C@]12CC[C@@H]3c4ccc(O)cc4CC[C@H]3[C@@H]1C[C@@H](O)[C@@H]2O
Answer label: inactive
--
Smiles data: CN(C)CCCOc1ccc(-c2ccc3ncc4c(c3c2)n(C2CCOCC2)c(=O)n4C)cn1
Answer label: active
--
Smiles data: CN1CCCN(C(=O)c2cccc(-c3ccc(/C=C4/C(=O)Nc5ccc(Cl)cc54)o3)c2)CC1
Answer label: active
--
Smiles data: N#Cc1ccc(-c2c(-c3ncn[nH]3)sc(N3CCOCC3)c2C#N)c(F)c1
Answer label: active
--
Smiles data: O=C(N[C@@H](c1ccccc1)[C@@H]1CCCCN1)c1cccc(C(F)(F)F)c1Cl
Answer label: active
--
Smiles data: O=C(Cc1ccccc1)Nc1nnc(CCSCCc2nnc(NC(=O)Cc3ccccc3)s2)s1
Answer label: inactive
--
Smiles data: Cc1noc(C)c1-c1ccc(-c2cc(C(N)=O)c(NC(N)=O)s2)c(O[C@H]2CCNC2)c1
Answer label: inactive

* * *

Method notes: BET inhibitor-based combinations targeting novel dependencies in MECOM-rearranged (r) AML: OCI-AML3 cell line (AID 2202232); further: nearly all actives have a fitted effect of over 35% in size
Experimental setup: CellTiter-Glo luminescence, 48 h; OCI-AML3 viability; series mostly up to 46 µM
Results filed as inconclusive are left out. Calls of active or inactive are those of the source. Calls follow the shape of the dose curve; as a rule, active = well fitted inhibition curve with a large enough effect; inconclusive = small, poorly fitted or top-dose-only effect; inactive = no such curve, though single readings can be large or run the other way.
Classes used: yes (1) (active), no (0) (inactive)

Compound: COc1cc(OC)cc(N(CCNC(C)C)c2ccc3ncc(-c4cnn(C)c4)nc3c2)c1
Answer label: yes (1)
//
Compound: C[C@H](CN(C)C)Oc1nc(Nc2cc3cccc(Cl)c3cn2)cnc1C#N
Answer label: yes (1)
//
Compound: COC(=O)Nc1nc2ccc(S(=O)c3ccccc3)cc2[nH]1 (stereo not drawn)
Answer label: yes (1)
//
Compound: Nc1nc(-c2nn(Cc3ccccc3F)c3ncccc23)ncc1C1CC1
Answer label: yes (1)
//
Compound: CC1(C)O[C@@H]2C[C@H]3[C@@H]4CCC5=CC(=O)C=C[C@]5(C)[C@H]4[C@@H](O)C[C@]3(C)[C@]2(C(=O)CO)O1
Answer label: no (0)
//
Compound: CC(=O)O[C@H]1C(=O)[C@@]2(C)C([C@H](OC(=O)c3ccccc3)[C@]3(O)C[C@H](OC(=O)[C@H](O)[C@@H](NC(=O)c4ccccc4)c4ccccc4)C(C)=C1C3(C)C)[C@]1(OC(C)=O)CO[C@@H]1C[C@@H]2O (stereo partly drawn)
Answer label: yes (1)
//
Compound: C=C[C@@H]1CN2CCC1C[C@H]2[C@H](O)c1ccnc2ccc(OC)cc12 (stereo partly drawn)
Answer label: yes (1)
//
Compound: O=C(C[C@@H]1C/C=C\CCC(=O)O[C@H](c2ccccc2)CNC1=O)NCc1ccc(Cl)cc1
Answer label: no (0)
